Attribution: paper PMC6848382

tested on: Staphylococcus aureus CMCC26074; type: cell-based; conditions: CMCC26074, 24 h
No end group written: not given here.
reported_property: MIC (µM)
Respond with the bare value in µM.

RWRRIVVIRVRR-NH2 [W2R3V10R11]    64
RRWRIVVIRWRR-NH2 [R2W3W10R11]    128

Ask | Looking for the measured MIC of RKWRIVVIRVRR-NH2 [K2W3V10R11] , can you help?
Reply | 256

Ask | Looking for the measured MIC of RRFRIVVIRWLR-NH2 [R2F3W10L11] , can you help?
Reply | 256

----------
system: Listeria monocytogenes CMCC54004; format: cell-based; conditions: CMCC54004, 24 h
No end group written: not given here.
reported_property: MIC (µM)
Respond with the bare value in µM.

// known answers, use as guide
RRFRIVVIRWLR-NH2 [R2F3W10L11]    16
RKWRIVVIRVRR-NH2 [K2W3V10R11]    2
RWRRIVVIRVRR-NH2 [W2R3V10R11]    2

Ask | Looking for the measured MIC of RRWRIVVIRWRR-NH2 [R2W3W10R11] , can you help?
Reply | 1

Ask | Looking for the measured MIC of RKRRIVVIRRKR-NH2 [K2R3R10K11] , can you help?
Reply | 32
